# protocol-details: Toxicity against Triticum aestivum Yang Mai 1 (wheat) assessed as growth inhibition at 300 ai g/ha post-emergent application measured after 20 days by green house crop selectivity test
# Format: organism-based
# run-parameters: Yang Mai 1, triticum aestivum, in vivo, read-out: GI
value-kind: inhibition at 480 h (%)
Give bare numbers, in %.

I would be grateful if you could share the reported inhibition at 480 h for COP(=O)(OC)C(C)OC(=O)COc1ccc(Cl)cc1Cl (stereo unspecified) [CLACYFOS] .
0

====

Assign inhibition at 480 h to each entry below.
# protocol-details: Toxicity against Oryza sativa (rice) assessed as growth inhibition at 450 ai g/ha post-emergent application measured after 20 days by green house crop selectivity test
# Type: organism-based
# run-parameters: in vivo, read-out: GI
One number for each entry, in %.

Some entries whose results are on file:
I would be grateful if you could share the reported inhibition at 480 h for `COP(=O)(COC(=O)COc1ccc(Cl)cc1Cl)OC` .
0

I would be grateful if you could share the reported inhibition at 480 h for CCOP(=O)(OCC)C(C)OC(=O)COc1ccc(Cl)cc1Cl (stereo unspecified) .
37.5

I would be grateful if you could share the reported inhibition at 480 h for COP(=O)(OC)C(C)OC(=O)COc1ccc(Cl)cc1Cl (stereo unspecified) .
0

I would be grateful if you could share the reported inhibition at 480 h for `O=C(O)COc1ccc(Cl)cc1Cl` .
37.5

I would be grateful if you could share the reported inhibition at 480 h for `COP(=O)(COC(=O)COc1cccc(C(F)(F)F)c1)OC` .
32.5

Lab note: next compound to report on.
I would be grateful if you could share the reported inhibition at 480 h for COP(=O)(OC)C(OC(=O)COc1ccc(Cl)cc1Cl)c1ccccc1 (stereo unspecified) .
10

====

# Test system: Echinochloa crus-galli
# protocol-details: Post-emergence herbicidal activity against Echinochloa crus-galli (barnyard grass) assessed as growth inhibition at 1500 ai g/ha after 20 days by green house test
# Format: functional
Assign growth inhibition (GI) to each entry below.
Give bare numbers, in %.

For the record COP(=O)(OC)C(OC(=O)COc1cccc(C)c1C)c1ccccc1 (stereo not given) , what value of growth inhibition (GI) is listed for Echinochloa crus-galli?
50

Lab note: next compound to report on.
For the record COP(=O)(OC)C(OC(=O)COc1ccc(Cl)cc1Cl)C(Cl)(Cl)Cl (stereo not given) , what value of growth inhibition (GI) is listed for Echinochloa crus-galli?
50

====

# protocol-details: Toxicity against Zea mays Gao you 1 (maize) assessed as growth inhibition at 600 ai g/ha post-emergent application measured after 20 days by green house crop selectivity test
# Format: organism-based
# run-parameters: Gao you 1, zea mays, in vivo, read-out: GI
value-kind: inhibition at 480 h
A bare number is not enough; add the unit after it.

I would be grateful if you could share the reported inhibition at 480 h for COP(=O)(OC)C(C)OC(=O)COc1ccc(Cl)cc1Cl (stereo unspecified) .
0%

====

# protocol-details: Toxicity against Zea mays Gao you 1 (maize) assessed as growth inhibition at 300 ai g/ha post-emergent application measured after 20 days by green house crop selectivity test
# Assay type: organism-based
# run-parameters: Gao you 1, zea mays, in vivo, read-out: GI
value-kind: inhibition at 480 h (%)
One number for each entry, in %.

I would be grateful if you could share the reported inhibition at 480 h for COP(=O)(OC)C(C)OC(=O)COc1ccc(Cl)cc1Cl (stereo unspecified) .
0
